The values you see were collected from the supplement of paper PMC4466140.

target: CaNbp2; assay: SPOT peptide array binding signal intensity (averaged, normalized) (arbitrary units (background-subtracted, floor 0; scale differs between SH3 domains)); higher = stronger binding of the SH3 domain to the peptide
Reported SPOT peptide array binding signal intensity is given for each of the following binders.
parameterMeasured: SPOT peptide array binding signal intensity

> print(dat)
             binder  comparator  measuredvalue
 1  TTAPALPSLPPPPLL           ≤              0
 2  KFIPSRPAPKPPSSA           =           6170
 3  LASNSPPVYPKRIRH           ≤              0
 4  KRNRLKILLPFLEQS           =            742
 5  QQEQNTPPLPPKPKS           ≤              0
 6  WTQRRGPLVVYAEDN           =           44.5
 7  PLQSKIPMLPSRRTM           =            881
 8  DTFLPPPPPPPSNFE           ≤              0
 9  LTRRFPFLFPFDTRM           =            249
10  EAEEAAPQLPSRSSA           ≤              0
11  PPIPIVPSSPAPPLP           =           47.5
12  TKRKRPARLIFYDSK           =            450
13  RMVRRRPLRVQFSAR           =           1470
14  SKSRLLIELPEGFFT           =           34.5
